B1: DYRK1B (parent)
chain: ARKYFERLPGGGWTLRRTKELRKD

Variants of: B1
Assay: protein stability index of a GFP-peptide fusion (GPS, HEK-293T) (PSI 1-6); higher = more stable;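 note: lentivirally expressed fusions sorted by FACS into six bins by GFP to DsRed ratio, PSI derived from sequencing read proportions per bin multiplied by bin number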
Conditions: c terminus: a fixed tail appended
Response key: 1 means protein stability index >= 3; 0 means protein stability index < 3.

Consider the worked cases shown below.
>>> df
   mutations  group
0       E20I      0
1       G11C      1
2       G11M      0
3       R17E      1
4       L21H      1
5       L21G      1
6        R7F      0
7        Y4P      1
8       R22A      1
9       T14P      0

Incoming: Test whether the variant W13T records protein stability index of 3 or higher.
Outgoing: 1

Incoming: Test whether the variant Y4H records protein stability index of 3 or higher.
Outgoing: 1
